- System Under Test: UniProtKB P01375
- Sequence (P01375 77-233): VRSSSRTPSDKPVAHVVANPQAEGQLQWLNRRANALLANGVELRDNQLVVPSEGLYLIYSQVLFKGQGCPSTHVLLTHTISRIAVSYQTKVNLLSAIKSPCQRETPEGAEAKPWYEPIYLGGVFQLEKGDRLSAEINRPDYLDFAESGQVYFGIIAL
- Measurement Notes: TNF induced HEK-Blue assay
- Condition Summary: TNFα 0.5 ng/ml; HEK-Blue-CD40L cells, NF-κB-driven secreted alkaline phosphatase reporter; 18 h
pIC50: −log10 of the molar value.
Readout: pIC50

Below are worked cases with known answers.
CC(C)(O)c1ccc(-c2ccc3nc4n(c3n2)C(c2ccccc2OC(F)F)CC4O)cc1 (single isomer, unassigned) [Example 2 (e1)] ... > 6.00
CC(C)(O)c1ccc(-c2ccc3nc4n(c3n2)C(c2ccccc2C2CC2)CC4O)cc1 (single isomer, unassigned) [Example 9 (e4)] ... 5.00 to 6.00
Cc1ccc(C)c(C2CC(O)c3nc4ccc(-c5cnc(C(C)(C)O)nc5)nc4n32)c1 (stereo not drawn) [Example 5 (DM)] ... > 6.00
CC(C)(O)c1ccc(-c2ccc3nc4n(c3n2)C(c2ccccc2C(F)(F)F)CC4O)cc1 (single isomer, unassigned) [Example 1 (e3)] ... 5.00 to 6.00
CC(C)(O)c1ccc(-c2ccc3nc4n(c3n2)C(c2c(F)cccc2C(F)(F)F)CC4O)cc1 (single isomer, unassigned) [Example 3 (e2)] ... > 6.00

// recorded pIC50 for CC(C)(O)c1ccc(-c2ccc3nc4n(c3n2)C(c2ccccc2C2CC2)CC4F)cc1 (single isomer, unassigned) [Example 21 (e1)] : > 6.00

// recorded pIC50 for CC(C)(O)c1ccc(-c2ccc3nc4n(c3n2)C(c2cc(F)ccc2C(F)(F)F)CC4F)cc1 (single isomer, unassigned) [Example 24 (e2)] : 5.00 to 6.00

// recorded pIC50 for CC(C)(O)c1ncc(-c2ccc3nc4n(c3n2)C(c2ccccc2OC(F)F)CC4F)cn1 (stereo not drawn) [Example 16 (e4)] : > 6.00
